Tested on: c-Abl (mouse);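 note: 11-residue human phosphosite peptides and single-mutation variants displayed on the E. coli surface, counted by deep sequencing, each peptide's frequency after selection divided by its frequency in the unselected input library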;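 note: frequency after pTyr selection over input frequency; kinase dosed for 20-30% of maximal phosphorylation in three min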
experiment_notes: phosphorylation enrichment, bacterial display (enrichment ratio); higher = better substrate or ligand; peptides without Tyr show the background
measured_attribute: phosphorylation enrichment

Query block: Value lookup for phosphorylation enrichment; key = LLINKYGLSAH [SCP2_Y151]
Result block: 0.559

Query block: Thanks! And PSSRDYKDNIK [PIGN_Y227_H229D] ?
Result block: 0.47

Query block: Thanks! And ATHRSYDSDNP [MMUT_Y146_G145S] ?
Result block: 0.518

Query block: Thanks! And EKLIQYCQSKG [AKR1B1_Y199] ?
Result block: 0.462

Query block: Thanks! And LKGQVYILGRE [ASS1_Y359] ?
Result block: 1.47

Query block: Thanks! And IVEELYAIPPD [PEAK1_Y797_S792I] ?
Result block: 10

Query block: Thanks! And FRKNIYNVKST [SYNE2_Y575_YF] ?
Result block: 0.39
